inhibition in vivo at 25 mg/kg listing for selected compounds.
# System: Ehrlich ascites carcinoma
# Assay method text: Preventive effect against the growth of Ehrlich ascites carcinoma (Method A)
# Format: in vivo, mice (ICR, female)
# Assay setup: Mus musculus, Ehrlich, ip, 120 h; 25 mg/kg/day i.p., 5 days; read-out: Inhibition ratio
Response body: numeric value in %, unit text excluded.

Reported inhibition in vivo at 25 mg/kg, compound O=NN(CCCl)C(=O)N(Cc1cccs1)C1OC[C@H](O)[C@H](O)[C@H]1O (stereo partly drawn) : ____
100

Reported inhibition in vivo at 25 mg/kg, compound Cc1ccc(CN(C(=O)N(CCCl)N=O)C2O[C@H](CO)[C@@H](O[C@H]3O[C@H](CO)[C@@H](O)[C@H](O)[C@H]3O)[C@H](O)[C@H]2O)cc1 (stereo partly drawn) : ____
100

Reported inhibition in vivo at 25 mg/kg, compound O=NN(CCCl)C(=O)N(Cc1ccccc1)C1OC[C@H](O)[C@H](O)[C@H]1O (stereo partly drawn) : ____
100

Reported inhibition in vivo at 25 mg/kg, compound O=NN(CCCl)C(=O)N(Cc1ccccc1)C1O[C@H](CO)[C@@H](O[C@H]2O[C@H](CO)[C@@H](O)[C@H](O)[C@H]2O)[C@H](O)[C@H]1O (stereo partly drawn) : ____
100

Reported inhibition in vivo at 25 mg/kg, compound O=NN(CCCl)C(=O)N(Cc1cccs1)C1O[C@H](CO)[C@@H](O[C@H]2O[C@H](CO)[C@@H](O)[C@H](O)[C@H]2O)[C@H](O)[C@H]1O (stereo partly drawn) : ____
100

More entries:
Reported inhibition in vivo at 25 mg/kg, compound O=NN(CCCl)C(=O)N(CC1CCCO1)C1O[C@H](CO)[C@H](O)[C@H](O)[C@H]1O (stereo partly drawn) : ____
100

Reported inhibition in vivo at 25 mg/kg, compound COc1ccc(CN(C(=O)N(CCCl)N=O)C2O[C@H](CO)[C@@H](O[C@H]3O[C@H](CO)[C@@H](O)[C@H](O)[C@H]3O)[C@H](O)[C@H]2O)cc1 (stereo partly drawn) : ____
100

Reported inhibition in vivo at 25 mg/kg, compound O=NN(CCCl)C(=O)N(Cc1ccco1)C1O[C@H](CO)[C@@H](O)[C@H]1O (stereo partly drawn) : ____
100

Reported inhibition in vivo at 25 mg/kg, compound O=NN(CCCl)C(=O)N(CC1CC1)C1O[C@H](CO)[C@H](O)[C@H](O)[C@H]1O (stereo partly drawn) : ____
100

Reported inhibition in vivo at 25 mg/kg, compound CC(c1ccccc1)N(C(=O)N(CCCl)N=O)C1O[C@H](CO)[C@@H](O[C@H]2O[C@H](CO)[C@@H](O)[C@H](O)[C@H]2O)[C@H](O)[C@H]1O (stereo partly drawn) : ____
100

Reported inhibition in vivo at 25 mg/kg, compound O=NN(CCCl)C(=O)N(Cc1ccco1)C1O[C@H](CO)[C@@H](O[C@H]2O[C@H](CO)[C@@H](O)[C@H](O)[C@H]2O)[C@H](O)[C@H]1O (stereo partly drawn) : ____
100

Reported inhibition in vivo at 25 mg/kg, compound O=NN(CCCl)C(=O)N(CC1CC1)C1OC[C@H](O)[C@H](O)[C@H]1O (stereo partly drawn) : ____
100
